Ref: patent US8648068B2

Biological target: UniProt:Q9HBH9
Test: Mnk2a in vitro kinase assay (indirect fluorescence polarization)
Conditions: GST-Mnk2a pre-activated with ERK2, 20 μM ATP, 30 μM substrate peptide; read-out: MNK2 IC50
pIC50: −log10 of the molar value.
measured_quantity: pIC50

(P) Cc1c(C(=O)NCC2CCCCC2)sc2ncnc(Nc3ccc(F)cc3OC3CCCNC3)c12 (stereo not shown)
(Q) Cc1c(C(N)=O)sc2ncnc(Nc3ccc(F)cc3O[C@H]3CCCN(CCO)C3)c12
(R) Cc1c(C(N)=O)sc2ncnc(Nc3ccc(F)cc3O[C@@H]3CCCN(Cc4nccs4)C3)c12
Falling order of pIC50, please. Thanks in advance for listing the labels in the requested order.
R, P, Q
(R: 7.55, P: 7.28, Q: 6.92)

* * *

Biological target: human Mnk2a (Homo sapiens, UniProt Q9HBH9)
Sequence (Q9HBH9 whole entry): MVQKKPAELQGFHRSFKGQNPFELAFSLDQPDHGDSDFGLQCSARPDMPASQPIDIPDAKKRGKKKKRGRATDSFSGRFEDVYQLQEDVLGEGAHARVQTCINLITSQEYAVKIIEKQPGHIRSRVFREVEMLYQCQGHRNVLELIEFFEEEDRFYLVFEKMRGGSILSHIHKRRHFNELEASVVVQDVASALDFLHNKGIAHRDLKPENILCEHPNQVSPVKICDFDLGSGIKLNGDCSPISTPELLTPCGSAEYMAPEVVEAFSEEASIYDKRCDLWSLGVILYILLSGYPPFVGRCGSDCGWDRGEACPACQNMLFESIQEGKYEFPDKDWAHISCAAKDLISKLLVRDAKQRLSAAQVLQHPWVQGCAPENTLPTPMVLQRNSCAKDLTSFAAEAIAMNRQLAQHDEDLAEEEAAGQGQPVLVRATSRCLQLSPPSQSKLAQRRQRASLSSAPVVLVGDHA
Test: Mnk2a in vitro kinase assay (indirect fluorescence polarization)
Conditions: GST-Mnk2a pre-activated with ERK2, 20 μM ATP, 30 μM substrate peptide; read-out: MNK2 IC50
pIC50: −log10 of the molar value.
measured_quantity: pIC50

Cc1c(C(N)=O)sc2ncnc(Nc3ccc(F)cc3O[C@H]3CCCN(CCC(F)(F)F)C3)c12 :: 6.74
Cc1c(C(=O)NCCn2cccn2)sc2ncnc(Nc3ccc(F)cc3OC3CCOCC3)c12 :: 7.29

(a) Cc1c(C(=O)NC2CCN(C)C[C@@H]2O)sc2ncnc(Nc3ccc(F)cc3OC3CCOCC3)c12 (stereo partly shown)
(b) Cc1c(C(=O)NCCOC(F)(F)F)sc2ncnc(Nc3ccc(F)cc3OC3CCCNC3)c12 (stereo not shown)
Lab note: record which item had the higher pIC50, a or b . Returns: label corresponding to the selected item.
a

(1) Cc1c(C(=O)NC2CCCN(C(=O)OC(C)(C)C)CC2)sc2ncnc(Nc3ccc(F)cc3O[C@H]3CCOC3)c12 (stereo partly shown)
(2) Cc1c(C(=O)NCC#CCN(C)C)sc2ncnc(Nc3ccc(F)cc3O[C@@H]3CCOC3)c12
Of 1 and 2 , which carries the smaller reported pIC50 figure? Returns: label corresponding to the selected item.
1
(1: 7.40, 2: 7.72)

(A) Cc1c(C(=O)NCCCN(C)C)sc2ncnc(Nc3ccc(F)cc3O[C@@H]3CCCN(S(C)(=O)=O)C3)c12
(B) Cc1c(C(=O)NCCCN2CCCC2=O)sc2ncnc(Nc3ccc(F)cc3OC3CCOCC3)c12
Of A and B , which carries the smaller reported pIC50 figure? Returns: label corresponding to the selected item.
B

* * *

Biological target: human Mnk2a (Homo sapiens)
Assay: Mnk2a in vitro kinase assay (indirect fluorescence polarization)
Conditions: GST-Mnk2a pre-activated with ERK2, 20 μM ATP, 30 μM substrate peptide; read-out: MNK2 IC50
pIC50: −log10 of the molar value.
measured_quantity: pIC50

Example cases with answers are listed next.
Cc1c(C(=O)NCCS(N)(=O)=O)sc2ncnc(Nc3ccc(F)cc3OC3CCOCC3)c12 :: 7.47
Cc1c(C(=O)NCCCN2CCC(F)(F)C2)sc2ncnc(Nc3ccc(F)cc3OC3CCOCC3)c12 :: 7.51
Cc1c(C(=O)NCC2CN(C)CCO2)sc2ncnc(Nc3ccc(F)cc3OC3CCOCC3)c12 (stereo not shown) [Example 116] :: 7.66
Cc1c(C(=O)NCc2cc[nH]n2)sc2ncnc(Nc3ccc(F)cc3OC3CCOCC3)c12 :: 7.52
Cc1c(C(=O)NCCc2ccc(O)cc2)sc2ncnc(Nc3ccc(F)cc3OC3CCCNC3)c12 (stereo not shown) :: 7.82
Cc1c(C(=O)N[C@H]2CCC[C@@H]2O)sc2ncnc(Nc3ccc(F)cc3OC3CCOCC3)c12 :: 7.38
Cc1c(C(N)=O)sc2ncnc(Nc3cccnc3O[C@H]3CCOC3)c12 :: 7.47
Cc1c(C(=O)NC2CC2)sc2ncnc(Nc3ccc(F)cc3O[C@H]3CCCNC3)c12 :: 7.52
CONC(=O)c1sc2ncnc(Nc3ccc(F)cc3OC3CCN(S(C)(=O)=O)C3)c2c1C (stereo not shown) :: 7.35
Cc1c(C(=O)NCCC2CCCN2C)sc2ncnc(Nc3ccc(F)cc3OC3CCOCC3)c12 (stereo not shown) :: 7.59

(I) Cc1c(C(=O)NCc2ncco2)sc2ncnc(Nc3ccc(F)cc3OC3CCOCC3)c12
(II) Cc1c(C(=O)NCc2cc(F)ccc2F)sc2ncnc(Nc3ccc(F)cc3OC3CCCNC3)c12 (stereo not shown)
(III) Cc1c(C(N)=O)sc2ncnc(Nc3ccc(F)cc3O[C@@H]3CCCNC3)c12
Task field, ranking: reported pIC50, descending order. Thanks in advance for listing the labels in the requested order.
I, II, III
(I: 7.57, II: 7.37, III: 7.05)

* * *

Biological target: human Mnk2a (Homo sapiens)
Assay: Mnk2a in vitro kinase assay (indirect fluorescence polarization)
Details: GST-Mnk2a pre-activated with ERK2, 20 μM ATP, 30 μM substrate peptide; read-out: MNK2 IC50
Description: Inhibitory potency of compounds against Mnk1, Mnk2a and other kinases was assessed with assays based on a format known to those skilled in the art as the indirect (competitive) fluorescence polarization. The assay detection system comprises a small fluorophore-labeled phospho-peptide (termed ligand) bound to a phospho-specific antibody. The product generated by the kinase reaction competes with the ligand for antibody binding. […]
measured_quantity: IC50 (nM)

Cc1c(C(N)=O)sc2ncnc(Nc3ccc(F)cc3O[C@H]3CCOC3)c12 :: 9

(P) Cc1c(C(=O)N[C@H]2CCNC[C@@H]2O)sc2ncnc(Nc3ccc(F)cc3OC3CCOCC3)c12
(Q) Cc1c(C(=O)N[C@H]2CCC[C@@H]2O)sc2ncnc(Nc3cccnc3OC3CCOCC3)c12
Of P and Q , which carries the smaller reported IC50 figure? Returns: label corresponding to the selected item.
P
(P: 18 nM, Q: 79 nM)

(A) CSCCNC(=O)c1sc2ncnc(Nc3ccc(F)cc3OC3CCOCC3)c2c1C
(B) Cc1c(C(N)=O)sc2ncnc(Nc3ccc(F)cc3O[C@@H]3CCCN(CCC#N)C3)c12
(C) Cc1c(C(N)=O)sc2ncnc(Nc3ccc(F)cc3O[C@@H]3CCOC3)c12
(D) Cc1c(C(=O)NCc2nccn2C)sc2ncnc(Nc3ccc(F)cc3O[C@H]3CCCNC3)c12
(E) Cc1c(C(=O)NC(C)C)sc2ncnc(Nc3ccc(F)cc3O[C@H]3CCCNC3)c12
Would you mind ranking these molecules by ascending IC50? Thanks in advance for listing the labels in the requested order.
B, C, D, E, A

(I) Cc1c(C(N)=O)sc2ncnc(Nc3ccc(F)cc3O[C@H]3CCCN(C)C3)c12
(II) Cc1c(C(=O)NC(C)CO)sc2ncnc(Nc3ccc(F)cc3OC3CCOCC3)c12 (centres unmarked)
(III) Cc1c(C(=O)NCCCN2CCC(O)CC2)sc2ncnc(Nc3ccc(F)cc3OC3CCOCC3)c12
Task field, ranking: reported IC50, descending order. Thanks in advance for listing the labels in the requested order.
I, II, III
(I: 80 nM, II: 50 nM, III: 34 nM)

* * *

Molecular target: human Mnk2a (Homo sapiens, UniProt Q9HBH9)
Assay: Mnk2a in vitro kinase assay (indirect fluorescence polarization)
Conditions: GST-Mnk2a pre-activated with ERK2, 20 μM ATP, 30 μM substrate peptide; read-out: MNK2 IC50
Experimental: Inhibitory potency of compounds against Mnk1, Mnk2a and other kinases was assessed with assays based on a format known to those skilled in the art as the indirect (competitive) fluorescence polarization. The assay detection system comprises a small fluorophore-labeled phospho-peptide (termed ligand) bound to a phospho-specific antibody. The product generated by the kinase reaction competes with the ligand for antibody binding. […]
measured_quantity: IC50 (nM)

Cc1c(C(=O)NO)sc2ncnc(Nc3ccc(F)cc3OC3CCN(S(C)(=O)=O)C3)c12 (centres unmarked) [Example 93] :: 19
Cc1c(C(=O)NCC2CCOC2)sc2ncnc(Nc3ccc(F)cc3OC3CCCNC3)c12 (centres unmarked) [Example 24] :: 62
Cc1c(C(N)=O)sc2ncnc(Nc3ccc(F)cc3O[C@@H]3CCN(S(C)(=O)=O)C3)c12 [Example 99] :: 6

(A) COCC(=O)N1CCC(Oc2cc(F)ccc2Nc2ncnc3sc(C(N)=O)c(C)c23)C1 (centres unmarked) [Example 94]
(B) Cc1c(C(=O)NCC2CNC(=O)C2)sc2ncnc(Nc3ccc(F)cc3OC3CCOCC3)c12 (centres unmarked) [Example 199]
Of A and B , which carries the smaller reported IC50 figure? Returns: label corresponding to the selected item.
B

(a) CCOCCCNC(=O)c1sc2ncnc(Nc3ccc(F)cc3OC3CCOCC3)c2c1C [Example 218]
(b) Cc1c(C(=O)NCCn2cc[nH]c2=O)sc2ncnc(Nc3ccc(F)cc3OC3CCOCC3)c12 [Example 179]
Lab note: record which item had the higher IC50, a or b . Returns: label corresponding to the selected item.
b
(b: 166 nM, a: 33 nM)

* * *

Molecular target: human Mnk2a (Homo sapiens)
Assay: Mnk2a in vitro kinase assay (indirect fluorescence polarization)
Settings: GST-Mnk2a pre-activated with ERK2, 20 μM ATP, 30 μM substrate peptide; read-out: MNK2 IC50
pIC50: −log10 of the molar value.
measured_quantity: pIC50

(I) Cc1c(C(=O)NC#N)sc2ncnc(Nc3ccc(F)cc3O[C@@H]3CCOC3)c12 [Example 100]
(II) COC[C@@H]1CCCN1CCCNC(=O)c1sc2ncnc(Nc3ccc(F)cc3OC3CCOCC3)c2c1C [Example 122]
(III) Cc1c(C(=O)N[C@H]2CC[C@@](C)(O)CC2)sc2ncnc(Nc3ccc(F)cc3OC3CCOCC3)c12 [Example 170]
(IV) Cc1c(C(=O)NC2CC2)sc2ncnc(Nc3ccc(F)cc3O[C@@H]3CCOC3)c12 [Example 107]
(V) Cc1c(C(=O)N[C@H](C)C(=O)O)sc2ncnc(Nc3ccc(F)cc3OC3CCOCC3)c12 [Example 147]
Falling order of pIC50, please. Thanks in advance for listing the labels in the requested order.
I, V, IV, II, III

(1) Cc1c(C(=O)NCCC(N)=O)sc2ncnc(Nc3ccc(F)cc3OC3CCOCC3)c12 [Example 165]
(2) Cc1c(C(=O)NCCCN(C)C)sc2ncnc(Nc3cccnc3O[C@H]3CCOC3)c12 [Example 270]
Lab note: record which item had the higher pIC50, 1 or 2 . Returns: label corresponding to the selected item.
1
(1: 7.41, 2: 6.53)

(a) Cc1c(C(=O)NCCCN2CCCC2)sc2ncnc(Nc3cccnc3O[C@@H]3CCCOC3)c12 [Example 262]
(b) Cc1c(C(=O)N2CCCCC2CN2CCOCC2)sc2ncnc(Nc3ccc(F)cc3OC3CCOCC3)c12 (stereo not shown) [Example 252]
Of a and b , which carries the smaller reported pIC50 figure? Returns: label corresponding to the selected item.
b
(b: 5.07, a: 7.28)
